Biological target: KCNQ4 (Homo sapiens)
Assay: Automated patch clamp, activation of KCNQ4 channels
OBSERVABLE: EC50

- Cc1c(F)c(NCc2ccc(F)cc2)c(F)c(C)c1NC(=O)CC(C)(C)C [Compound 2]: 1 to 10 µM
- Cc1c(F)c(N2CCc3cc(F)ccc3C2)c(F)c(C)c1NC(=O)CC(C)(C)C [Compound 1]: ≥ 10 µM
- C#CCN(Cc1ccc(F)cc1)c1ccc(NC(=O)OCC)c(N)c1 [Control, reference compound]: 0.1 to 1 µM

* * *

Molecular target: KCNQ3/5 (Homo sapiens, UniProt O43525+Q9NR82)
Assay: Automated patch clamp, activation of KCNQ3/5 channels
Description: Electrophysiological studies of the compounds were performed using the Nanion SyncroPatch automated patch clamp platform. Kv7 channels were evaluated using a voltage protocol in which cells were voltage-clamped at a holding potential of −110 mV. […] Data was collected on the Syncropatch platform using PatchControl software (Nanion) and processed and analyzed using DataControl Software (Nanion). […]
pEC50: −log10 of the molar value.
pEC50: recorded values
OBSERVABLE: pEC50

- C#CCN(Cc1ccc(F)cc1)c1ccc(NC(=O)OCC)c(N)c1 [Control, reference compound]: > 7.00
- Cc1c(F)c(N2CCc3cc(F)ccc3C2)c(F)c(C)c1NC(=O)CC(C)(C)C: 5.00 to 6.00
- Cc1c(F)c(NCc2ccc(F)cc2)c(F)c(C)c1NC(=O)CC(C)(C)C: 6.00 to 7.00
